- Tested on: HepG2
- ASSAY_TEXT: GSK_TCMDC: Percent inhibition of human HepG2 cell line. Test compounds present at 10uM.
- Type: functional

| COMPOUND | RESULT_UNITS | Inhibition |
| --- | --- | --- |
| O=C(NCCCCN1CCC(c2ccc3ccccc3c2)CC1)c1ccc(NC(=O)c2ccc(Cl)cc2)cc1 | % | 24 |
| CCOc1cc(Cc2cnc(N)nc2N)cc(OCC)c1OCCCCC(=O)OC | % | 0 |
| Nc1ccc(-c2ccc(NC(=O)Nc3ccccc3)cc2)cn1 | % | 0 |
| CS(=O)(=O)N1CC2(CCN(CCC(NC(=S)Nc3ccccc3)c3ccc(Cl)c(Cl)c3)CC2)c2ccccc21 (stereo not given) | % | 24 |
| CC(C)c1ccc(CN2CCC(CNC(=O)c3cc(-c4ccc(N(C)C)cc4)cs3)C2)cc1.O=C(O)C(F)(F)F (stereo not given) | % | 36 |

* * *

- Tested on: Plasmodium falciparum
- ASSAY_TEXT: GSK_TCMDC: Inhibition of Plasmodium falciparum 3D7 in whole red blood cells, using parasite LDH activity as an index of growth. Test compounds present at 2uM
- Format: functional
TEST_READOUT: Inhibition (%)

| COMPOUND | RESULT_UNITS | NUMERIC_RESULT |
| --- | --- | --- |
| CC(C)N1CCN(C(CN2CCN(CCCOc3cccc(F)c3)CC2)c2ccc(F)cc2)CC1.Cl (stereo not drawn) | % | 92 |
| CC1(C)Cc2c([nH]c3ccccc23)C(CCCCCCCCC2=NC(C)(C)Cc3c2[nH]c2ccccc32)=N1.Cl | % | 99 |
| Cc1ccc(Cn2ncc(NC3CCNCC3)c(Cl)c2=O)cc1NC(=O)Nc1ccc(-c2ccccc2)cc1.O=C(O)C(F)(F)F | % | 99 |
| Cc1nc(-c2ccc(-c3ccc(C(=O)Nc4ccc(I)c(OCCN5CCCC5)c4)cc3)c(C)c2)no1.Cl | % | 95 |
| CCOc1cc(C(=O)NCCN2CCCCC2)ccc1-c1nc2cc(Cl)ccc2[nH]1 | % | 99 |
| O=C(C=Cc1ccc(Cl)c(Cl)c1)NCCCCCN1CCCC(CCCNS(=O)(=O)c2cccc(C(F)(F)F)c2)C1 (stereo not drawn) | % | 94 |
| CC(=O)Nc1ccc(Nc2c3ccccc3nc3ccccc23)cc1 | % | 89 |
| CC(Cc1ccc(C(=O)N2CCN(C(=O)c3ccc(CC(C)NCCc4cccc(Cl)c4)cc3)CC2)cc1)NCCc1cccc(Cl)c1 (stereo not drawn) | % | 100 |
| CCc1ccc(C2=Nn3c(nnc3-c3cccs3)SC2)cc1 | % | 93 |
| CCOc1cc(C(=O)NC2CCN(Cc3ccccc3)CC2)ccc1-c1nc2cc(Cl)c(F)cc2[nH]1 | % | 100 |
| CCc1cn2c3c(cc(C(=O)N[C@@H](Cc4cccc(Cl)c4)[C@H](O)CNC4CCOCC4)cc13)N(C)S(=O)(=O)CC2.O=CO | % | 98 |
| FC(F)(F)c1ccc2nccc(NCc3ccccc3)c2c1 | % | 93 |
| O=C(NCc1ccc(F)cc1)c1ccc(N2CCN(c3ccncc3)CC2)cn1.O=C(O)C(F)(F)F | % | 98 |
| CCC(C)(C)C1CCc2[nH]c3ccccc3c(=O)c2C1 (stereo not drawn) | % | 97 |
| CCCCc1cc(NCc2ccncc2)nc(Nc2ccccc2)n1 | % | 96 |
| CC(C)CN(c1nc(C(=O)NNC(=O)[C@H](CC2CC2)NC(=O)c2cc3cc(OCCN4CCCCC4)ccc3o2)cs1)C1CC1 | % | 97 |
| O=C(NC1CC1)c1ccc(Nc2nccc(-c3c(-c4cccc(NC(=O)c5c(F)cccc5F)c4)nn4ccccc34)n2)cc1 | % | 94 |
| CN1CCC(N2CCN(Cc3cccc(-c4ccc(-c5nc6ccccc6[nH]5)cc4)c3)CC2)CC1.O=C(O)C(F)(F)F | % | 100 |

* * *

- System: Plasmodium falciparum
- ASSAY_TEXT: GSK_TCMDC: Inhibition of Plasmodium falciparum Dd2 in whole red blood cells, using parasite LDH activity as an index of growth. Test compounds present at 2uM
- Assay type: functional
Friendly reminder: Inhibition below 20% is Fulfilled, at or above is Not fulfilled.

| MOLECULE | CLASS_NAME |
| --- | --- |
| CCOc1ccc(NC(C)=O)c(O)c1 | Fulfilled |
| O=C(O)C(F)(F)F.O=c1[nH]ccc2nc(N[C@@H]3CCNC3)nc(Nc3ccc4c(c3)S(=O)(=O)CC4)c12 | Not fulfilled |
| COc1ccccc1NC(=O)NC1CCN(CCCCCNC(=O)/C=C/c2ccc(Cl)c(Cl)c2)CC1 | Fulfilled |
| O=C(Nc1cccc(CN2CCCN(Cc3cccnc3)CC2)c1)c1ccc(Cl)c(Cl)c1.O=C(O)C(F)(F)F | Fulfilled |
| NC12CC3CC(CC(C3)C1)C2 [AMANTADINE] | Fulfilled |
| O=C(NCc1ccccc1)Nc1ccc(-c2ccc(-c3nc4cc(C(F)(F)F)ccc4[nH]3)cc2)cc1 | Not fulfilled |
| Cc1nn(CC(C)C)c2sc(C(=O)Nc3nc(-c4ccccn4)cs3)cc12 | Not fulfilled |
| CC(=O)c1c(Cc2cccc(C(F)(F)F)c2)c[nH]c1C | Not fulfilled |
| CCN(CC)CCN(Cc1ccc(-c2ccc(Br)cc2)cc1)C(=O)Cn1c(CCc2cccc(F)c2F)nc(=O)c2ccccc21.O=C(O)C(O)C(O)C(=O)O | Not fulfilled |

* * *

Each record here notes measured Inhibition.
- Test system: Plasmodium falciparum
- ASSAY_TEXT: GSK_TCMDC: Inhibition of Plasmodium falciparum 3D7 in whole red blood cells, using parasite LDH activity as an index of growth. Test compounds present at 2uM
- Assay type: functional
TEST_READOUT: Inhibition (%)

| COMPOUND | RESULT_UNITS | NUMERIC_RESULT |
| --- | --- | --- |
| OC(CNC1CCCCC1)Cn1c2ccc(Br)cc2c2cc(Br)ccc21 (stereo not given) | % | 98 |
| FC(F)(F)c1ccc2[nH]ccc(=NN=Cc3ccccc3)c2c1 | % | 92 |
| Cc1ccc(CN2CCN(Cc3cccc(NC(=O)c4ccc5ccccc5c4)c3)CC2)cc1C.O=C(O)C(F)(F)F | % | 89 |
| O=C(/C=C/c1ccc(Cl)c(Cl)c1)NCCCCCN1CCC(NC(=O)NC2CCCCCC2)CC1 | % | 99 |
| CN1CCCN(c2ccnc3cc4c(cc23)N(C(=O)c2ccc(Cl)cc2Cl)CC4)CC1.Cl | % | 100 |

* * *

- Tested on: HepG2
- ASSAY_TEXT: GSK_TCMDC: Percent inhibition of human HepG2 cell line. Test compounds present at 10uM.
- Assay type: functional
TEST_READOUT: Inhibition

| COMPOUND | RESULT |
| --- | --- |
| OC1=C2C(=Nc3ccccc3SC2c2ccccc2)c2ccccc21 (stereo not given) | 5% |
| Cc1nc(C)c(-c2ccc(C(F)(F)F)cc2)c(O)c1Br | 0% |
| O=C(O)C(F)(F)F.O=S(=O)(NCCN1CCCC1)c1ccc(-c2ccc(CNCc3ccccc3)cc2)s1 | 34% |
| CC(C)CCNC(=N)Nc1ccc(OCCCCCOc2ccc(NC(=N)NCCC(C)C)cc2)cc1 | 14% |
| FC(F)(F)c1ccc2[nH]c(-c3ccc(-c4cccc(CNCc5ccccc5)c4)cc3)nc2c1.O=C(O)C(F)(F)F | 0% |
| O=C(Nc1cccc(CN2CCCN(Cc3ccc(O)cc3)CC2)c1)c1ccc2ccccc2c1.O=C(O)C(F)(F)F | 20% |
| COc1ccc(C(=O)Nc2nonc2-c2ccc(OC)c(OC)c2)cc1Cl | 6% |
| Br.CC1(C)NC(N)=NC(=N)N1OCCOc1cccc(C(F)(F)F)c1 | 67% |
| CNc1nc(Nc2ccccc2C)nc2ccccc12.Cl | 17% |
| O=C(Nc1ccccc1)Nc1cccc(-c2cccc(-c3nc4cc(F)ccc4[nH]3)c2)c1 | 38% |
| CCc1cn(CCCOC)c2ccc(C(=O)N[C@@H](Cc3ccccc3)[C@H](O)CNCc3cccc(C(F)(F)F)c3)cc12 | 8% |
| COc1ccc2ncc(F)c(CCN3CCC(NCc4cc(C)c5c(c4)OCCO5)CC3)c2n1.Cl | 20% |
| COc1ccc2c(c1C1CCN(CCCCNC(=O)c3ccc(-c4ccc(Cl)cn4)cc3)CC1)CCCC2 | 29% |
| N=C(N)Nc1nc(-c2cccc(NC(=O)NCc3cccc4ccccc34)c2)cs1 | 14% |
| N=C(Nc1cccc(Cc2ccccc2)n1)Nc1ncccn1 | 51% |
| CCOc1ccc(-c2nonc2NC(=O)c2ccccc2)cc1OCC | 6% |
| COc1ccc2ncc(F)c(CCN3CC[C@@H](CNCc4ccc5c(c4C)OCCO5)C3)c2n1.Cl | 17% |
| O=C(NCCN1CCCCC1)c1ccc(Nc2nccc(Nc3ccc(Oc4ccccc4)cc3)n2)cc1 | 58% |
| Cc1cccn2c(=O)c3cc(C(=O)NC(C)c4ccccc4)c(=N)n(CCc4ccccc4)c3nc12 (stereo not given) | 5% |
| CC(=O)Nc1ncc(C(=O)Nc2cccc(-c3cccc(-c4nc5cc(C(F)(F)F)ccc5[nH]4)c3)c2)s1 | 76% |
